- assay protocol: Ratio of drug level in epithelial lining fluid to plasma in lung transplant recipient invasive aspergillosis patient at 150 mg, iv QD for 4 consecutive days measured after 18 hrs post last dose
- Assay type: ADME, organism-based
- experimental context: human
Numbered stars: 1 amine (or outer) side, 2 acyl side, 3 side chain; on linkers, the order of the positions; unused ones are H or OH. Bridge positions count the residues as written; N and C are the ends. Square brackets hold non-standard residues; d marks the D form. Peptide text beside a SMILES is read from it. * marks the point of attachment. hTyr(3S-OH,4S-OH,3'-OSO3H) = N[C@H](C(=O)O)[C@H](O)[C@@H](O)c1ccc(O)c(OS(=O)(=O)O)c1; Orn(4R-OH,5R-OH) = O=C([C@H](C[C@@H](O)[C@@H](O)N[*:3])N[*:1])[*:2]; Pro(3S-OH,4S-Me) = C[C@H]1CN[C@H](C(=O)O)[C@H]1O; X1 = CCCCCOc1ccc(-c2cc(-c3ccc(C(=O)*)cc3)no2)cc1; Gln(3R-OH) = NC(=O)C[C@@H](O)[C@H](N)C(=O)O; Hyp = O=C(O)[C@@H]1C[C@@H](O)CN1
measured metric: Kp at 18 h
Lab note: jot the number down without any unit.

Kp at 18 h reported for this molecule CCCCCOc1ccc(-c2cc(-c3ccc(C(=O)N[C@H]4C[C@@H](O)[C@@H](O)NC(=O)[C@@H]5[C@@H](O)[C@@H](C)CN5C(=O)[C@H]([C@H](O)CC(N)=O)NC(=O)[C@H]([C@H](O)[C@@H](O)c5ccc(O)c(OS(=O)(=O)O)c5)NC(=O)[C@@H]5C[C@@H](O)CN5C(=O)[C@H]([C@@H](C)O)NC4=O)cc3)no2)cc1 [MICAFUNGIN] (X1-[Orn(4R-OH,5R-OH)]T[Hyp][hTyr(3S-OH,4S-OH,3'-OSO3H)][Gln(3R-OH)][Pro(3S-OH,4S-Me)]; lactam 1-C) : 0.04

----------
- assay protocol: Ratio of drug level in epithelial lining fluid to plasma in lung transplant recipient invasive aspergillosis patient at 150 mg, iv measured after 5 hrs post last dose
- experimental context: human
Numbered stars: 1 amine (or outer) side, 2 acyl side, 3 side chain; on linkers, the order of the positions; unused ones are H or OH. Bridge positions count the residues as written; N and C are the ends. Square brackets hold non-standard residues; d marks the D form. Peptide text beside a SMILES is read from it. * marks the point of attachment. hTyr(3S-OH,4S-OH,3'-OSO3H) = N[C@H](C(=O)O)[C@H](O)[C@@H](O)c1ccc(O)c(OS(=O)(=O)O)c1; Orn(4R-OH,5R-OH) = O=C([C@H](C[C@@H](O)[C@@H](O)N[*:3])N[*:1])[*:2]; Pro(3S-OH,4S-Me) = C[C@H]1CN[C@H](C(=O)O)[C@H]1O; X1 = CCCCCOc1ccc(-c2cc(-c3ccc(C(=O)*)cc3)no2)cc1; Gln(3R-OH) = NC(=O)C[C@@H](O)[C@H](N)C(=O)O; Hyp = O=C(O)[C@@H]1C[C@@H](O)CN1
measured metric: Kp at 5 h
Write no unit; give the number alone.

Reported Kp at 5 h ( CCCCCOc1ccc(-c2cc(-c3ccc(C(=O)N[C@H]4C[C@@H](O)[C@@H](O)NC(=O)[C@@H]5[C@@H](O)[C@@H](C)CN5C(=O)[C@H]([C@H](O)CC(N)=O)NC(=O)[C@H]([C@H](O)[C@@H](O)c5ccc(O)c(OS(=O)(=O)O)c5)NC(=O)[C@@H]5C[C@@H](O)CN5C(=O)[C@H]([C@@H](C)O)NC4=O)cc3)no2)cc1 [MICAFUNGIN] (X1-[Orn(4R-OH,5R-OH)]T[Hyp][hTyr(3S-OH,4S-OH,3'-OSO3H)][Gln(3R-OH)][Pro(3S-OH,4S-Me)]; lactam 1-C) ) = 0.15
